Just for reference, patent US20230096766A1 is where these values come from.

assay.name: in vitro
run.parameters: human, Caco-2, Caco-2
Where a SMILES comes first, the peptide text is derived from it. Bridges are numbered along the chain shown (N, C = ends). [ ]: non-standard residue; d: D form. The star is where a group is joined. ξ: configuration not given here. NMeAbu(4-morpholino) = CN[C@@H](CCN1CCOCC1)C(=O)O; Ethyl(2-morpholino) = C1CN(CC*)CCO1; NMeF = CN[C@@H](Cc1ccccc1)C(=O)O; NMeL = CN[C@@H](CC(C)C)C(=O)O; NMeAbu = CC[C@H](NC)C(=O)O; NMeA = CN[C@@H](C)C(=O)O; Piperidide = C1CCN(*)CC1; NBuGly = CCCCNCC(=O)O; ξS = NC(CO)C(=O)O
Papp overview

# molecule, Papp [×10⁻⁶ cm/s]
rows = [
    ("CCCCN1CC(=O)N(C)[C@@H](CC(C)C)C(=O)N[C@H](C(=O)N2CCCCC2)CC(=O)N(C)[C@@H](CC)C(=O)NC(COCCN2CCOCC2)C(=O)N(C)[C@@H](CC(C)C)C(=O)N(C)[C@@H](CC)C(=O)N[C@@H](C(C)C)C(=O)N(C)[C@@H](Cc2ccccc2)C(=O)N(C)[C@@H](CC(C)C)C(=O)N[C@@H]([C@@H](C)O)C1=O (stereo partly drawn) [pd483] ([NMeAbu][ξS](Ethyl(2-morpholino))[NMeL][NMeAbu]V[NMeF][NMeL]T[NBuGly][NMeL]D-Piperidide; lactam N-11)", 1.9),
    ("CCCCN1CC(=O)N(C)[C@@H](CCN2CCOCC2)C(=O)N[C@H](C(=O)N2CCCCC2)CC(=O)N(C)[C@@H](C)C(=O)N[C@@H](CC(C)C)C(=O)N(C)[C@@H](CC(C)C)C(=O)N(C)[C@@H](Cc2ccccc2)C(=O)N[C@@H](CC(C)C)C(=O)N(C)[C@@H](Cc2ccccc2)C(=O)N(C)[C@@H](CC(C)C)C(=O)N[C@@H]([C@@H](C)O)C1=O [pd454] ([NMeA]L[NMeL][NMeF]L[NMeF][NMeL]T[NBuGly][NMeAbu(4-morpholino)]D-Piperidide; lactam N-11)", 1.2),
]

---

assay.name: in vitro
run.parameters: human, Caco-2, Caco-2 (cm/sec) Papp
Where a SMILES comes first, the peptide text is derived from it. Bridges are numbered along the chain shown (N, C = ends). [ ]: non-standard residue; d: D form. The star is where a group is joined. NMeF = CN[C@@H](Cc1ccccc1)C(=O)O; NMeL = CN[C@@H](CC(C)C)C(=O)O; NMeA = CN[C@@H](C)C(=O)O; Piperidide = C1CCN(*)CC1; Sar = CNCC(=O)O

# molecule, unit.of.measurement, Papp
records = [
    ("CC(C)C[C@@H]1NC(=O)[C@H](Cc2ccccc2)N(C)C(=O)[C@H]([C@@H](C)O)NC(=O)[C@H](Cc2ccccc2)NC(=O)[C@H](Cc2ccccc2)N(C)C(=O)C[C@@H](C(=O)N2CCCCC2)NC(=O)[C@H](C)N(C)C(=O)[C@H](CC(C)C)N(C)C(=O)CN(C)C(=O)[C@H](CC(C)C)N(C)C(=O)[C@H](Cc2ccccc2)N(C)C1=O [pd230] ([NMeF]FT[NMeF]L[NMeF][NMeL][Sar][NMeL][NMeA]D-Piperidide; lactam N-11)", "×10⁻⁶ cm/s", 0.25),
    ("CC(C)C[C@H]1C(=O)N(C)[C@@H](Cc2ccccc2)C(=O)N(C)[C@@H](Cc2ccccc2)C(=O)N[C@@H]([C@@H](C)O)C(=O)N(C)[C@@H](C)C(=O)N(C)[C@@H](Cc2ccccc2)C(=O)N[C@H](C(=O)N2CCCCC2)CC(=O)N(C)[C@@H](C)C(=O)N(C)[C@@H](CC(C)C)C(=O)N(C)[C@@H](Cc2ccccc2)C(=O)N[C@@H](C)C(=O)N1C [pd232] ([NMeA][NMeL][NMeF]A[NMeL][NMeF][NMeF]T[NMeA][NMeF]D-Piperidide; lactam N-11)", "×10⁻⁶ cm/s", 0.19),
]
